- Tested on: Halamphora coffeaeformis
- measurement.notes: Microalgal growth assay (chlorophyll a)
- Type: cell-based
- run.conditions: Halamphora coffeiformis, 120 h, 5 days incubation, 10–0.01 μg/mL tested, read-out: MIC against the growth (G) of microalgae, H. coffeaformis
endpoint: MIC (µg/mL)
Answers are plain numbers, in µg/mL.

compound.string | endpoint | quantitative.readout
COc1ccc(C(Cc2ccccc2)=NO)cc1OC | MIC | 0.1

List the reported MIC of each molecule below.
1. COc1ccc(CC(=NO)c2ccc(O)c(O)c2)cc1
2. COc1cc(CC(=NO)c2ccc(OC)c(OC)c2)ccc1O

1
10

----------
- Test system: Pleurochrysis roscoffensis
- measurement.notes: Microalgal growth assay (chlorophyll a)
- Type: cell-based
- run.conditions: Chrysotila roscoffensis, 120 h, 5 days incubation, 10–0.01 μg/mL tested, read-out: MIC against the growth (G) of microalgae, P. roscoffensis
- Method: Cyprid larvae of B. improvisus were reared in a laboratory cultivating system at Tjärnö Marine Biological Laboratory, University of Gothenburg, Sweden, as previously described by Berntsson et al. ([2000]). […] Microplates containing the compounds in ranging concentrations (10–0.01 μg/mL) were prepared from MeOH stock solutions as previously described (Trepos et al. [2014]; Moodie et al. [2017a]). […] Both microalgal adhesion and growth inhibition were measured. […]
Could you please report measured MIC for the items listed next?
One number for each entry, in mg/L.

compound.string | endpoint | quantitative.readout
COc1ccc(C(Cc2ccc(O)cc2)=NO)cc1OC | MIC | 10
COc1ccc(C(Cc2ccccc2)=NO)cc1OC | MIC | 0.01

List the reported MIC of each compound below.
1. COc1ccc(CC(=NO)c2ccc(O)c(OC)c2)cc1
2. COc1cc(C(Cc2cccc(O)c2)=NO)ccc1O
3. COc1cc(C(Cc2ccc(O)cc2)=NO)ccc1O
4. COc1ccc(CC(=NO)c2ccc(O)c(O)c2)cc1
5. COc1cc(CC(=NO)c2ccc(OC)c(OC)c2)ccc1O

10
0.1
10
1
10

----------
- Tested on: Halamphora coffeaeformis
- measurement.notes: Microalgal growth assay (chlorophyll a)
- Type: cell-based
- run.conditions: Halamphora coffeiformis, 120 h, 5 days incubation, 10–0.01 μg/mL tested, read-out: MIC against the growth (G) of microalgae, H. coffeaformis
endpoint: MIC (µg/mL)
One number for each entry, in µg/mL.

Worked cases, MIC given:
compound.string | subject.of.test | readout.units | MIC
COc1cc(C(Cc2ccc(O)cc2)=NO)ccc1O | Halamphora coffeaeformis | µg/mL | 10
COc1ccc(C(Cc2ccc(O)cc2)=NO)cc1OC | Halamphora coffeaeformis | µg/mL | 10
COc1ccc(CC(=NO)c2ccc(OC)c(OC)c2)cc1 | Halamphora coffeaeformis | µg/mL | 10

What is its MIC for Halamphora coffeaeformis? Entry: COc1cc(C(Cc2cccc(O)c2)=NO)ccc1O
0.1

----------
- System: Porphyridium purpureum
- measurement.notes: Microalgal growth assay (chlorophyll a)
- Format: cell-based
- run.conditions: 120 h, 5 days incubation, 10–0.01 μg/mL tested, read-out: MIC against the growth (G) of microalgae, P. purpureum
endpoint: MIC

compound | MIC
COc1cc(C(Cc2cccc(O)c2)=NO)ccc1O [Compound 13] | 1 µg/mL

List the reported MIC of each compound below.
1. COc1ccc(CC(=NO)c2ccc(OC)c(OC)c2)cc1 [Compound 9]
2. COc1cc(CC(=NO)c2ccc(OC)c(OC)c2)ccc1O [Compound 14]
3. COc1cc(C(Cc2ccc(O)cc2)=NO)ccc1O [Compound 12]

["> 10 µg/mL", "> 10 µg/mL", "> 10 µg/mL"]

Every entry's value here was drawn from paper PMC5889410.
